Target: T1, Recombinant human CD4 (R&D Systems, Cat. 10327-CD) (human, UniProt P01730 26-390, limits assumed)
T1 construct: Bought soluble recombinant protein used as analyte at 100 nM; also called huCD4
Assay: BLI (Octet Red384), non-clonal supernatant on AMC sensor, 100 nM human CD4, 1:1 local fit;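 note: hybridoma antibodies captured from supernatant, single CD4 concentration as analyte, association and dissociation phases fitted together, giving single-point kinetic estimates per supernatant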
Parameter Measured: kon (M⁻¹ s⁻¹)
Return type: number; implicit unit M⁻¹ s⁻¹.

Please review the following examples before continuing.
{"columns": ["Binder", "Observed Measurement"],
 "data": [
  ["75110_07J24A (antibody, V domains shown, Non-clonal AlivaMab Mouse Kappa hybridoma supernatant, captured by anti-mouse IgG Fc (human V regions, mouse Fc)) VH: QAQLQESGPGLVKPSETLSLTCTVSGGSISSYYYNWIRQPAGKGLEWIGRIYTSGRTDYNPSLKSRVTMSADTSKNQFSLKLSSVTAADTAVYYCARDEGPTDAFDIWGQGTMVTVSS VL: DIVMTQTPLSLPVTPGEPASISCRSSQSLLDSDDGNTYLDWYLQKPGQSPHLLIYTLSYRASGVPDRFSGSGSGSDFTLKISRVEAEDVGVYYCMQRIEFPFTFGPGTKVDIK", 77000],
  ["75110_06E14A (antibody, V domains shown, Non-clonal AlivaMab Mouse Kappa hybridoma supernatant, captured by anti-mouse IgG Fc (human V regions, mouse Fc)) VH: QVQLQESGPGLVKPSETLSLTCTVSGGSISNYFWSWIRQPAGKGLEWIGRIYSSGNTNYNPSLKSRVTMSVDTSKNQFSLKLSSVTAADTAVYYCARDREDYYYYGMDVWGQGTTVTVSS VL: DIQMTQSPSSLSASVGDRVTITCQASQDISNYLNWYQQKPGKAPKLLIYGASILETGVPSRFTGSGSGTDFTFTISSLQPEDIATYYCQQYDSLPITFGQGTRLEIK", 170000]
]}

Now take the following binder into account.
# kon of 75110_06K03A (antibody, V domains shown, Non-clonal AlivaMab Mouse Kappa hybridoma supernatant, captured by anti-mouse IgG Fc (human V regions, mouse Fc)) VH: QVQLQESGPGLVKPSETLSLTCTVSGGSISTYYWSWIRQPAGKGLEWIGRINTSGSTTYNPSLKSRVTMSVDTSKNQFSLKLSSVTAADTAVYYCARELERYYYYGMDVWGQGTTVTVSS VL: DIQMTQSPSSLSASVGDRVTITCQASQDISNYLNWYQQKPGKAPKLLIYYASILETGVPSRFSGSGSGTDFTFTISSLQPEDIATYYCQQYDSLPLTFGGGTKVEIK = 280000
